B1: tRNA (parent)
chain: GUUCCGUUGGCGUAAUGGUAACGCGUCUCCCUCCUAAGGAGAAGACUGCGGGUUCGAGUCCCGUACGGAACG

variants of: B1; assay: yeast fitness relative to wild type (ratio to wild type); higher = fitter; tRNA-Arg(CCU), competitive growth, 37 C, YPD
This sample holds only a part of the variants without activity.
Hi, to clarify the labels: class 1 covers yeast fitness from 0.6 upward, class 0 covers anything below 0.6.

Worked cases, answers included:
>>> df
                    variant_code  assigned_label
0                 C24U U32A C60U         class 0
1                 A42U C55U A69C         class 0
2  A20C A37G C49G U53A C60U A69C         class 0
3       G17C C24G U28A C30U A65U         class 0
4                 U19G C34A G50A         class 0

Pending variant:
Q: Check this variant for yeast fitness at or above 0.6: A20U U54C
Result: class 1
